src = the supplement of paper PMC10126150

Each item that follows carries a reported switch fluorescence ratio.
- Tested on: ATP;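 further: ATP exposure 15 min at 22 °C before imaging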
- MEASUREMENT DESCRIPTION: switch fluorescence ratio, 500 uM ATP over buffer (Cy3 cluster intensity, sum of 5 cycles each) (fold (ratio)); higher = stronger signal-on switching upon ATP binding; sequences stand for … in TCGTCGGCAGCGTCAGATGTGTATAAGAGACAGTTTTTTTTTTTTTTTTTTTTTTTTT…TC
- DETAILS: aptamer strand: ATP DNA aptamer (quencher-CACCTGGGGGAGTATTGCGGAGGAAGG + anchor), 100 nM annealed; ATP concentration: 500 uM
READOUT NAME: switch fluorescence ratio

[[record]]
seq_string = "GGTGTTACGT"
measured_result = 0.971

[[record]]
seq_string = "TTGTTGAATA"
measured_result = 1

[[record]]
seq_string = "CGGTGCTACT"
measured_result = 1.03

[[record]]
seq_string = "TGAAAATTTT"
measured_result = 0.99

[[record]]
seq_string = "TTCTGCAGGG"
measured_result = 0.997

[[record]]
seq_string = "TATATTAGGT"
measured_result = 1.13

[[record]]
seq_string = "ACTTTAGGGT"
measured_result = 1.15

[[record]]
seq_string = "CGGGAGCGTC"
measured_result = 1.02

[[record]]
seq_string = "TTTGAGCCCC"
measured_result = 1.04

[[record]]
seq_string = "GATCGAAGGG"
measured_result = 0.985

[[record]]
seq_string = "AACCGTCACA"
measured_result = 1.2

[[record]]
seq_string = "CTTGAATGCG"
measured_result = 0.999

[[record]]
seq_string = "CGACGATGAC"
measured_result = 5.46

[[record]]
seq_string = "AATCTATATT"
measured_result = 1.01

[[record]]
seq_string = "TTTCGTGACT"
measured_result = 1.02

[[record]]
seq_string = "AGGACTCGGG"
measured_result = 1.04

[[record]]
seq_string = "GGCTAGGGGG"
measured_result = 1.01

[[record]]
seq_string = "TTGCTATGTT"
measured_result = 1.01

[[record]]
seq_string = "TTTTGGTTTC"
measured_result = 1.05

[[record]]
seq_string = "AAACAAGCTT"
measured_result = 1.02

